Just for reference, ChEMBL document CHEMBL1201862 is where these values come from.

Target: Prothrombin (Bos taurus, UniProt P00735)
Experiment: thrombin protease inhibitors – biochemical, fluorescence polarization, uHTS hits, dose response (AID 602369)
Format: functional
Calls of active or inactive are those of the source.
IC50 reference

Before answering, review these 4 worked examples.
> print(dat)
                              sample.smiles                              study.target  property.measured      result.value
1  Cn1cncc1C#Cc1ccc2cc(C3(O)CCCCC3)oc(=O)c2c1  Prothrombin (Bos taurus, UniProt P00735)               IC50  53.3 µM (active)
2  Cc1cc(N2CCN(c3ccc([N+](=O)[O-])c4cccnc34)CC2)c2ccccc2n1  Prothrombin (Bos taurus, UniProt P00735)               IC50  27.7 µM (active)
3  CN(CCO)c1ccc(C=NNc2ccc([N+](=O)[O-])cc2S(=O)(=O)Nc2ccccc2C(=O)O)cc1  Prothrombin (Bos taurus, UniProt P00735)               IC50  36.4 µM (active)
4  COc1cc([N+](=O)[O-])cc(/C=N/NC(=O)c2cc(-c3ccccc3)nc3ccccc23)c1O  Prothrombin (Bos taurus, UniProt P00735)               IC50  75.1 µM (active)

State, in one line, measured IC50 of COc1ccccc1N1C(=N)S/C(=C\c2ccc(-c3ccccc3C(=O)O)o2)C1=O
68.5 µM (active)

###

Biological target: Long-chain-fatty-acid--AMP ligase FadD28 (Mycobacterium tuberculosis, UniProt P9WQ59)
Sequence (P9WQ59 whole entry): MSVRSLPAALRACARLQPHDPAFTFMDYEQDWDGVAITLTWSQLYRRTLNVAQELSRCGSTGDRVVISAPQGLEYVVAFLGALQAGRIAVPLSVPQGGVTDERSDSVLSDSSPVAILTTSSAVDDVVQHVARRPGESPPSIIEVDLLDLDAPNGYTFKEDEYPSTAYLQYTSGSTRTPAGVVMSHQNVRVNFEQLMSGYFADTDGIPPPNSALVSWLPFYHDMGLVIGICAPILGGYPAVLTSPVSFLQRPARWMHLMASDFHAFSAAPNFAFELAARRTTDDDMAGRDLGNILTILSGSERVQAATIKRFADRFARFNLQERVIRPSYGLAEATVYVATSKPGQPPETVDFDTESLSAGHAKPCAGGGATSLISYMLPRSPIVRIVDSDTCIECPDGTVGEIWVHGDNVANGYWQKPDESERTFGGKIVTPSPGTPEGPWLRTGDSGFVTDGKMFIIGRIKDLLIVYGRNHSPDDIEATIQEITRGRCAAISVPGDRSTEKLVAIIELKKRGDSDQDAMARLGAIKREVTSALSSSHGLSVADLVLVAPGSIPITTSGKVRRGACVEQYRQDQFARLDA
Experiment: Fluorescence polarization aasay to screen for inhibitors that compete for the binding of FadD28 to a bisubstrate Measured in Biochemical System Using Plate Reader - 2147-01_Inhibitor_Dose_CherryPick_Activity.
Type: functional, Mycobacterium tuberculosis H37Rv
The source made the active and inactive calls.
Hi! Could you answer with just one of these? active, inactive

// known answers, use as guide
> print(dat)
                                   compound  qualitative.label
1      O=C1c2ccccc2-c2onc3ccc(N4CCCC4)c1c23             active
2  O=C(O)c1ccc(N/N=C/c2ccc(-c3ccccc3)cc2)cc1             active

State the result this test recorded for Nc1nc(-c2cccs2)c(-c2cccs2)s1 .
inactive

State the result this test recorded for Cc1cccc(NC(=O)Cn2c(=O)n3nc(CCn4nc(C)cc4C)nc3c3ccccc32)c1 .
active

State the result this test recorded for COc1cc(/C=C2\SC(=S)N(NC(=O)c3ccc(O)c(OC)c3)C2=O)ccc1O .
inactive

State the result this test recorded for Cc1ccc(C2=NN(S(=O)(=O)c3ccccc3)C(c3ccccc3O)C2)cc1 (stereo unspecified) .
inactive

###

Molecular target: Genome polyprotein (dengue virus type 2)
Assay: flavivirus cap methylation enzyme inhibition – biochemical, confirmation dose response, primary screen (AID 588689)
Format: functional
The source made the active and inactive calls.
IC50 reference

Before answering, review these 2 worked examples.
> print(dat)
                              sample.smiles  property.measured      result.value
1  CCn1c2ccccc2c2cc(NC(=O)c3ccccc3-c3ccccc3C(=O)O)ccc21               IC50  42.9 µM (active)
2  CSc1ccc(C(c2c(C(=O)O)[nH]c3ccccc23)c2c(C(=O)O)[nH]c3ccccc23)cc1               IC50  48.8 µM (active)

State, in one line, measured IC50 of CCOc1ccc(NS(=O)(=O)c2ccc(Cl)c(NN=C3C(=O)NC(=S)NC3=O)c2)cc1Br
44.1 µM (active)

State, in one line, measured IC50 of Cc1ccc([C@H]2C(C(=O)O)=CC[C@@H](c3ccc(Cl)c(Cl)c3)N2S(=O)(=O)c2ccc(C)cc2)cc1
38.8 µM (active)

State, in one line, measured IC50 of O=C(O)CCn1cc(C=C2C(=O)NC(=O)NC2=O)c(-c2ccc(Br)cc2)n1
7.97 µM (active)

State, in one line, measured IC50 of O=C(O)C1=CC[C@@H](c2ccc(Cl)cc2)N(S(=O)(=O)c2ccc(Cl)cc2)[C@H]1c1cccc(Cl)c1
37.4 µM (active)

###

Target: Protein skinhead-1 (Caenorhabditis elegans)
Sequence (P34707 whole entry): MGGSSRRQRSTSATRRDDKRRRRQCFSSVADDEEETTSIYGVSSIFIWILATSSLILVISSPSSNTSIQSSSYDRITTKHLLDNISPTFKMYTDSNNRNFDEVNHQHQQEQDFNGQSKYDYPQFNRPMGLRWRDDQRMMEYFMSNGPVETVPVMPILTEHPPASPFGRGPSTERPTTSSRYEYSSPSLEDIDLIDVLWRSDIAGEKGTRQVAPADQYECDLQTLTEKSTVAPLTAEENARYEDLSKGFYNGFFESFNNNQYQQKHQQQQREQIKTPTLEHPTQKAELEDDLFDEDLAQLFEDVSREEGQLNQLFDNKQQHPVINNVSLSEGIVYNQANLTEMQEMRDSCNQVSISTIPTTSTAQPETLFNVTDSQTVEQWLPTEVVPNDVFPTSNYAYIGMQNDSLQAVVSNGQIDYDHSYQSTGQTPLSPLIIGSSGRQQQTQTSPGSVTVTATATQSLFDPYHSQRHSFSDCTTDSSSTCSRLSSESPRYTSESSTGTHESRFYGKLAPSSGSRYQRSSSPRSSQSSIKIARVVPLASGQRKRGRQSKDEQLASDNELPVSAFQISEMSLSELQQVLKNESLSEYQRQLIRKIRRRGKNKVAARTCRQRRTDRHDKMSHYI
Assay type: functional
The source made the active and inactive calls.
Hi! Could you answer with just one of these? y for active, n for inactive

// known answers, use as guide
> print(dat)
                              sample.smiles  qualitative.label
1                CCCOC(=O)c1cc(O)nc2ccccc12                  n
2  O=C(Nc1ccc(-c2noc(CCc3ccccc3)n2)cc1)c1ccco1                  n
3              Fc1ccccc1/C=C/c1ccc2ccccc2n1                  y
4          c1ccn2cc(-c3ccc4c(c3)OCCO4)nc2c1                  n
5        COC(=O)c1c(NC(=O)c2ccco2)sc2c1CCC2                  n
6      O=[N+]([O-])c1ccc(NCc2ccc(Cl)cc2)nc1                  y
7  Cn1cc([C@@H]2C[C@H]3CN(Cc4cccc(Cl)c4)C(=O)[C@]34CCCN24)c2ccccc21                  n

Now turn to the next molecule.
State the result this test recorded for CCCCOC(=O)Nc1ccc(N2CCCCC2)cc1 .
y

###

Assay: HIV-1 AD8 envelope cell-cell fusion blockers – cherry-pick, dose response (AID 652062);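 further: luciferase signal from cell-cell fusion driven by HIV-1 clade B AD8 Env; potency is for inhibitors of fusion seen as a drop in luminescence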
Assay type: functional, cell-based
The source made the active and inactive calls.
Property measured: AC50

Before answering, review these 3 worked examples.
> print(dat)
                                   molecule      result.value
1  C[C@@H]1CNC(=O)c2c(C(=O)N(C)Cc3ccccc3)ncn21  3.68 µM (active)
2  NC(CCc1ccccc1)c1csc(Nc2ccccn2)n1 (centres undefined)  22.6 µM (active)
3              COc1ccc(-c2c[nH]nc2N)c(OC)c1  4.98 µM (active)

Now let's try a different one.
State, in one line, measured AC50 of O=S(=O)(c1ccccc1Cl)N1CCCC1c1nc(-c2ccc(Cl)cc2)no1 (centres undefined)
14.8 µM (active)
